// ELISA lookup, one value per entry
- TARGET DESC: T1, BMPR1A-Fc (recombinant protein used in the screen 1 ELISA) (human, UniProt P36894 24-152, limits assumed); also: unit not given here
- T1 construct: also called human BMPR1A; not shown: Fc
- T1 sequence (P36894 24-152 limits assumed): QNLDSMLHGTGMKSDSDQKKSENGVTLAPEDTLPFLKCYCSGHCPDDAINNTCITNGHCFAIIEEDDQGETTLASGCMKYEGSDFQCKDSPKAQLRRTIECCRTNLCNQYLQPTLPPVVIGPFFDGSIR
- PROTOCOL DETAILS: ELISA

Field: example entries. Status: answers known.
# BINDER, ELISA
measured = [
    ("SC91.27 (murine anti-BMPR1B antibody) (antibody, V domains shown, Murine hybridoma antibody with the same VL as SC91.20) VH: QVQLQQPGAEVVKPGASVKLSCKASGYTFTNYWMQWVKQRPGQGLEWIGEIDPSDRYTMYNQKFKGKATLIVDTSSSTAYMQLSSLTSEDSAVYFCARFGYYVDYWGQGTTLTVSS VL: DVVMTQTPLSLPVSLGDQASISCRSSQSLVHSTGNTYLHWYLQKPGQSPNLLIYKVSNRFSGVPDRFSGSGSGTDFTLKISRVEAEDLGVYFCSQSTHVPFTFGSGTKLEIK", 0.043),
    ("SC91.1 (murine anti-BMPR1B antibody) (antibody, V domains shown, Murine hybridoma antibody with a kappa light chain) VH: QVQLQQPGAELVKPGASVKLSCKASGYTFTSYWMQWVKQRPGQGLEWIGEIDPSDNYTLYNQKFKGKATLTVDTSSSTAYMQLSSLTSEDSAVYYCARFGYYVDYWGLGTTLTVSS VL: DVVMTQTPLSLPVSLGDQASIFCRSSQSLVHSTGNTYLHWYLQKPGQSPKLLIYKVSNRFSGVPDRFSGSGSGTDFTLKISRVEAEDLGVYFCSQSTHVPFTFGSGTKLEIK", 0.031),
    ("SC91.11 (antibody, V domains shown) VH: QVQLQQPGAELVKPGASVKLSCKASGYTFTTYWMHWVKQRPGRGLEWIGRIDPNSGGTKYNEKFKSKATLTVDKPSSTACMQLSSLTSEDSAVYYCASRRGDIDVWGTGTTVTVSS VL: DIVMTQSQKFMSTSVGDRVSVTCKASQNVGTNVFWYQQKPGQSPKALIYAASYRYSGVPDRFTGSGSGTDFTLTISNVQSEDLADYFCQQYDSYPLTFGDGTKLELR", 0.117),
]

Here's the next entry for you.
Which measured ELISA value corresponds to SC91.9 (murine anti-BMPR1B antibody) (antibody, V domains shown, Murine hybridoma antibody) VH: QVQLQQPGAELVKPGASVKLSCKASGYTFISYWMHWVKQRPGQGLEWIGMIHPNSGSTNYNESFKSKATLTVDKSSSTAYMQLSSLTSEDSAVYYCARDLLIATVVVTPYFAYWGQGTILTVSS VL: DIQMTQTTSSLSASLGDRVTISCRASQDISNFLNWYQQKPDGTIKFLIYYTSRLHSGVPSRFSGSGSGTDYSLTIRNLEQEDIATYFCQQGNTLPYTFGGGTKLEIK ?
0.056
